targetEntity: Porcine kidney D-amino acid oxidase (Sus scrofa)
Construct: purchased Sigma Company A-5222; host or cells: porcine kidney
Sequence (P00371 whole entry): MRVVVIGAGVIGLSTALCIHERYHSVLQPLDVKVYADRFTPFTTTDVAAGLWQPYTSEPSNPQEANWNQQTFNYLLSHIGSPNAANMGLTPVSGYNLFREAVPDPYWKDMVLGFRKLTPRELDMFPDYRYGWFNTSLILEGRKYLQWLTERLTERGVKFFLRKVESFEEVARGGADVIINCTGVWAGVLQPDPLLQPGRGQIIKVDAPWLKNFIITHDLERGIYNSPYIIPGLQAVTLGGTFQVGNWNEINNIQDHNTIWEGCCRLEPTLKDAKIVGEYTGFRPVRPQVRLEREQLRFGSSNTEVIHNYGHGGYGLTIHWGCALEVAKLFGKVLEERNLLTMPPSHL
assayMethodText: D-amino acid oxidase inhibition assay (Amplex Red Hydrogen Peroxide Assay Kit)
Format: biochemical
runConditions: inhibitor at 40 μg/mL; D-serine substrate; reaction time five minutes
Please provide measured inhibition at 40 µg/mL for the entries that follow.

Past entries and their recorded results:
>>> endpointresult("O=C(O)c1cc2cc(O)ccc2[nH]1")
"90%"
>>> endpointresult("Cn1c(C(=O)O)cc2ccccc21")
"58%"
>>> endpointresult("O=C(O)c1ccc[nH]1")
"87%"
>>> endpointresult("O=C(O)c1cc2cc(Cl)ccc2[nH]1")
"86%"
>>> endpointresult("O=C(O)c1cc2ccccc2[nH]1")
"93%"

For each listed entry, give its inhibition at 40 µg/mL.
1. O=C(O)c1cc2ccccc2o1
2. COc1ccc2[nH]c(C(=O)O)cc2c1

## Output
["85%", "32%"]
